Target: Zap1 (UniProt P47043)
Sequence: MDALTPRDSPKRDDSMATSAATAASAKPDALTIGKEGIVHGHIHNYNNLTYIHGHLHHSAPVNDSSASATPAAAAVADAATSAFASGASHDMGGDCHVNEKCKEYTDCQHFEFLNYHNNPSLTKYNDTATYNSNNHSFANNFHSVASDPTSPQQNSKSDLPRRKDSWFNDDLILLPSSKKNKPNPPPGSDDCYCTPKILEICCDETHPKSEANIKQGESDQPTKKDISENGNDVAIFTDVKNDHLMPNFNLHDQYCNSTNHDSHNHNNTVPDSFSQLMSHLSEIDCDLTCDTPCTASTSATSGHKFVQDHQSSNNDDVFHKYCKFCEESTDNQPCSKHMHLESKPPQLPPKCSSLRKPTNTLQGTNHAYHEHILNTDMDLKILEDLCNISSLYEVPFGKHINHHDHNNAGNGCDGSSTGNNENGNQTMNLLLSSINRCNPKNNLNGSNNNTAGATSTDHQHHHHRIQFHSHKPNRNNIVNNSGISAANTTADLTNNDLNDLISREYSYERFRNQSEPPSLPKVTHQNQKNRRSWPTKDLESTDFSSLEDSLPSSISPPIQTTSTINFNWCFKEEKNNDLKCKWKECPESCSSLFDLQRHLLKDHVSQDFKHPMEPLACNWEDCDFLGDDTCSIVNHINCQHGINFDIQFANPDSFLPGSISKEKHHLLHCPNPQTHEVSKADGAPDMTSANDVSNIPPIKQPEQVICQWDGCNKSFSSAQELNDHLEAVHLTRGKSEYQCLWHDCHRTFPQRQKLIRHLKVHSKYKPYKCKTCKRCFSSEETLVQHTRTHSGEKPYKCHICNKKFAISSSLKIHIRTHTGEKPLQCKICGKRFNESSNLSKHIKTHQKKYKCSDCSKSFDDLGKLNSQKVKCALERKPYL
Test: PBM E-score (8-mer binding enrichment) (E-score (-0.5 to 0.5)); higher = stronger / more preferred TF binding
Details: protein concentration: 200 nM; construct: GST-full length
In all, about 33,000 sequences were measured (“E-score (-0.5 to 0.5)”: median about -0.021, highest 2% from about 0.32 on). What follows is part of a selection rich in the highest values, with near analogues and random picks from the rest.
Think of 0.1 as a floor: if PBM E-score stands on it or above, it is condition met; beneath it, condition not met.

Is the recorded value of PBM E-score equal to or greater than 0.1 for this sequence? GGATAGAA condition not met

Quick check, PBM E-score >= 0.1? ACAGGTTC condition not met

Kindly determine if PBM E-score recorded for CGGTTGTA is above or exactly 0.1. condition met

Hello, I need to know if CCGCCCGG has measured PBM E-score not below 0.1. Thanks! condition not met

Decide: PBM E-score of CAGGTTTC >= 0.1? condition met

Evaluate AAAAACCC : PBM E-score at minimum 0.1? condition met

Given the entry GGTTTTAC , answer whether its PBM E-score meets or surpasses 0.1. condition met

I'd appreciate it if you could say whether ACAGGTTA has PBM E-score at least equal to 0.1. condition met

Does CATAAACG have a reported PBM E-score of at least 0.1? condition not met

Say whether CGTGATGA shows PBM E-score of 0.1 or more. condition not met

Does AGTTAAGA have a reported PBM E-score of at least 0.1? condition not met

API: above_or_equal(metric=PBM E-score, cutoff=0.1) for item CGTTAAGA condition not met

Determine whether this sequence has PBM E-score no lower than 0.1: AGGTCGTC condition not met

Quick check: does AATGAATG have PBM E-score greater than or equal to 0.1? condition not met

Check the entry CGTGACCC : does PBM E-score equal or exceed 0.1? condition met

Check if PBM E-score >= 0.1 (inclusive). Item: AATGAAGT condition not met

Item CGTGACCA with PBM E-score of 0.1 or above? condition met

Does the reported PBM E-score for CGTGACGC fall at or above the 0.1 mark? condition not met

Reported PBM E-score at or above 0.1? ACCCAAAA condition met

Can CAGATTTC be said to have PBM E-score at or above 0.1? condition not met

Is it the case that ATTCGACC has PBM E-score reaching or exceeding 0.1? condition not met

Hello, I need to know if ATGCTAGG has measured PBM E-score not below 0.1. Thanks! condition not met

Answer whether PBM E-score of ACAAAAAC is greater than or equal to 0.1. condition met

Please indicate if the recorded PBM E-score for TAAGGGCA meets or exceeds 0.1. condition not met

Is PBM E-score for CCAGGTTA at or above 0.1? condition met

Could you verify whether the entry AGGTACAA shows PBM E-score of no less than 0.1? condition met

Check if PBM E-score >= 0.1 (inclusive). Item: GGTTAAGA condition met

Dear colleague, could you confirm whether ACAACCAC has PBM E-score at or above 0.1? condition met

Evaluate CGATCCAC : PBM E-score at minimum 0.1? condition not met

Please tell me: is the sequence AACCAGGT at or over 0.1 in terms of PBM E-score? condition met

# check: PBM E-score of CCAGGTTC is greater than or equal to 0.1 condition not met

Can AAACTTAG be said to have PBM E-score at or above 0.1? condition not met

Does the sequence CGGTCTAC have recorded PBM E-score that is 0.1 or more? condition not met

Check this sequence for PBM E-score at or above 0.1: AGTCTGAT condition not met

Confirm if PBM E-score reported for the sequence GCAGGTAA is 0.1 or above. condition met

Check the entry ATACAGAA : does PBM E-score equal or exceed 0.1? condition not met

Does TCCAGCGA have a reported PBM E-score of at least 0.1? condition not met

Exam item: decide whether the reported PBM E-score for CGCAAACC is at least 0.1. condition not met

Confirm if PBM E-score reported for the sequence TAAGGGGA is 0.1 or above. condition not met

Textbook exercise: given the entry ACAGGTTG , state whether its PBM E-score is greater than or equal to 0.1. condition met

Form field: PBM E-score at least 0.1? Entry: AAGTTGTA condition met

# bool: PBM E-score of ATCGCTCA >= 0.1 condition not met

Check this sequence for PBM E-score at or above 0.1: ACAACTAT condition met

Determine whether this sequence has PBM E-score no lower than 0.1: AGCCACAG condition not met

Decide: is the reported value of PBM E-score for CCCTAGAA equal to or greater than 0.1? condition met

Reported PBM E-score at or above 0.1? AAAGGGGA condition not met

Could you please find out whether ACGACTCG has PBM E-score that meets 0.1 or exceeds it? condition not met
